molecular target: the molecule itself; assay: steric trap, PG/PC
pKd: −log10 of the molar value.
PARAMETER MEASURED: pKd

PROTEIN: Glycophorin A TM domain (SNGpATM) TMD (protein) GERVQLAHHFSEPEITLIIFGVMAGVIGTILLISYGIRRLIKKSPSDVKPLPSPDTDVPLSSVEIENPETSDQ
EXPERIMENTAL VALUE: 7.33

The reported measurements were obtained from paper PMC3140635.
